Origin of measurements: patent US20190127381A1

- tgt: purified recombinant human PI3K enzyme γ (Homo sapiens, UniProt P48736)
- Construct: purchased Invitrogen, USA
- Sequence (P48736 whole entry): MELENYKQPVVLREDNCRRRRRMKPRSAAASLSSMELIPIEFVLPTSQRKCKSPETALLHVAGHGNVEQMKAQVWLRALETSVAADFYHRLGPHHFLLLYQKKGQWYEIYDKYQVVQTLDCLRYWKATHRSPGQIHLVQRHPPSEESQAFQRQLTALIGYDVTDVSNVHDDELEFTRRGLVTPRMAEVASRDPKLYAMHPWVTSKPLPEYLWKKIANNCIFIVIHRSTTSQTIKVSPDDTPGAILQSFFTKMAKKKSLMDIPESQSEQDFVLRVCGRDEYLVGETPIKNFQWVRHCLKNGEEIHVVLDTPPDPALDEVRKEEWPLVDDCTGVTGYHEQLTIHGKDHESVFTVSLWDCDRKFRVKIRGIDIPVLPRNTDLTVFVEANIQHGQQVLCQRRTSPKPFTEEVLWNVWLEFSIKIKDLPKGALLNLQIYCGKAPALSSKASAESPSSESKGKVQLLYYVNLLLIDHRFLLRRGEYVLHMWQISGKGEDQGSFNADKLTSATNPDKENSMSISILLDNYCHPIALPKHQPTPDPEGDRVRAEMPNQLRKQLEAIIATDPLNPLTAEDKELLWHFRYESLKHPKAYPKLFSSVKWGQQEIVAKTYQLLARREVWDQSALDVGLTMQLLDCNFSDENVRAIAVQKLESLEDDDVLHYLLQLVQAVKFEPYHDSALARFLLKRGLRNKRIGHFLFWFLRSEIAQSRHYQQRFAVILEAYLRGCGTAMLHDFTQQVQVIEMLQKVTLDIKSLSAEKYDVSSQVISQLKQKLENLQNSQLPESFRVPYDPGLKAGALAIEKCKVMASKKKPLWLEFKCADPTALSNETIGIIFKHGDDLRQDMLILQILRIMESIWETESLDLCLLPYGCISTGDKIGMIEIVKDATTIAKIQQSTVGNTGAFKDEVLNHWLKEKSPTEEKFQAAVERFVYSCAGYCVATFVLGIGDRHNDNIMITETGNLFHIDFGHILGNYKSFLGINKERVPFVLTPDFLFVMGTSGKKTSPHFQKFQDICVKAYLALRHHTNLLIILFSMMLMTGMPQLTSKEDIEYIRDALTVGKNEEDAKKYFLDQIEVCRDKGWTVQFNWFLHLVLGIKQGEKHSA
- assaySummary: Inhibition of PI3-Kinase enzymatic activity (HTRF enzyme assay), γ
- Assay type: biochemical
- measurementSetup: 1 μM compound; PI3K γ 100 ng/well; PIP2 10 μM; ATP 50 μM; read-out: Percentage inhibition of PI3K activity, γ
- Description: Inhibition of PI3-Kinase enzymatic activity was determined using a homogeneous time-resolved fluorescence (HTRF) kit from Eurofins. 1 μM of Compounds of present invention were premixed with DMSO. […] Reaction was terminated by addition of a stopping solution and was further incubated for 4 hours at room temperature before reading using Envision multimode reader (Perkin Elmer). […]
Examples of molecules with documented inhibition at 1 µM follow.

Known inhibition at 1 µM results, listed for orientation:
structureassmiles=Cc1ccc(C)n1-n1c(Cn2nc(-c3ccc(O)c4c3CC(C)(C)O4)c3c(N)ncnc32)nc2cccc(-c3cnn(C)c3)c2c1=O metricname="inhibition at 1 µM" recordedvalue="60 to 80%"
structureassmiles=CC1(C)Cc2c(-c3nn(Cc4nc5cccc(Cl)c5c(=O)n4-n4cc5ccccc5n4)c4ncnc(N)c34)ccc(O)c2O1 metricname="inhibition at 1 µM" recordedvalue="40 to 60%"
structureassmiles=Cc1ccc(C)n1-n1c(Cn2nc(-c3ccc(O)c4c3CC(C)(C)O4)c3c(N)ncnc32)nc2cccc(C#Cc3cncn3C)c2c1=O metricname="inhibition at 1 µM" recordedvalue="< 20%"
structureassmiles=Cc1ccccc1C1(n2c(Cn3nc(-c4ccc(O)c5c4CC(C)(C)O5)c4c(N)ncnc43)nc3cccc(Cl)c3c2=O)CC1 metricname="inhibition at 1 µM" recordedvalue="60 to 80%"
structureassmiles=Cc1ccc(C)n1-n1c(Cn2nc(-c3ccc(O)c4c3CC(C)(C)O4)c3c(N)ncnc32)nc2cccc(C#CCN3CCNC(=O)C3)c2c1=O metricname="inhibition at 1 µM" recordedvalue="80 to 100%"

Q: Identify measured inhibition at 1 µM corresponding to Cc1cc(C)n(-n2c(Cn3nc(-c4ccc(O)c5c4CC(C)(C)O5)c4c(N)ncnc43)nc3cccc(Cl)c3c2=O)n1
Ans: 80 to 100%

Q: Identify measured inhibition at 1 µM corresponding to CC1(C)Cc2c(-c3nn(Cc4nc5cccc(C#CC6CC6)c5c(=O)n4-n4cccc4)c4ncnc(N)c34)ccc(O)c2O1
Ans: 80 to 100%

Q: Identify measured inhibition at 1 µM corresponding to Cn1cc(-c2cccc3nc(Cn4nc(-c5ccc(O)c6c5CC(C)(C)O6)c5c(N)ncnc54)n(C4(c5ccsc5)CC4)c(=O)c23)cn1
Ans: 60 to 80%

Q: Identify measured inhibition at 1 µM corresponding to CC1(C)Cc2c(-c3nn(Cc4nc5cccc(C#CC6CC6)c5c(=O)n4C4(c5ccsc5)CC4)c4ncnc(N)c34)ccc(O)c2O1
Ans: 80 to 100%

Q: Identify measured inhibition at 1 µM corresponding to Cc1ccc(C2(n3c(Cn4nc(-c5ccc(O)c6c5CC(C)(C)O6)c5c(N)ncnc54)nc4cccc(C#CCO)c4c3=O)CC2)cc1
Ans: 80 to 100%
